Tested on: Bacillus subtilis
Assay: Antibacterial activity against Bacillus subtilis
Assay type: functional
observable: MIC (µg/mL)

As a guide, the following entries are already answered.
{"compound": "COC(NC(=O)CCCCCCNC(=N)N)C(=O)NCCCCNCCCN (racemic)", "MIC [µg/mL]": 50}
{"compound": "N=C(N)NCCCCCCC(=O)NC(CCc1ccccc1)C(=O)NCCCCNCCCN (racemic)", "MIC [µg/mL]": 50}

1. N=C(N)NCCCCCCC(=O)NC(C(=O)NCCCCNCCCN)c1ccc(Br)cc1 (racemic)
2. N=C(N)NCCCCCCC(=O)NCC(=O)NCCCCNCCCN
Query: Problem: Given the entries 1 and 2 , determine which has the lower reported MIC. Let me know the label of the one you choose.
Response: 2

---

Assay: Chemical stability of the compound in aqueous buffer assessed as half life at pH 8 by thin layer chromatography
Type: physicochemical
Details: aqueous buffer
observable: half-life (days)

{"molecule": "N=C(N)NCCCCCCC(=O)NC(CCc1ccccc1)C(=O)NCCCCNCCCN (racemic)", "meas_value": 23.5}

a. COC(NC(=O)CCCCCCNC(=N)N)C(=O)NCCCCNCCCN (racemic)
b. N=C(N)NCCCCCCC(=O)NCC(=O)NCCCCNCCCN
Query: Given a and b , report the one with the higher recorded half-life. Returns: label corresponding to the selected item.
Response: a

---

Test: Chemical stability of the compound in aqueous buffer assessed as half life at pH 10 by thin layer chromatography
Type: physicochemical
Settings: aqueous buffer
observable: half-life (h)

{"molecule": "N=C(N)NCCCCCCC(=O)NCC(=O)NCCCCNCCCN", "half-life, h": 3}

a. N=C(N)NCCCCCCC(=O)NC(C(=O)NCCCCNCCCN)c1ccc(Br)cc1 (racemic)
b. COC(NC(=O)CCCCCCNC(=N)N)C(=O)NCCCCNCCCN (racemic)
Query: Problem: Given the entries a and b , determine which has the lower reported half-life. Give the label under which the chosen entry appears.
Response: b

---

Test: Chemical stability of the compound in aqueous buffer assessed as half life at pH 7 by thin layer chromatography
Format: physicochemical
observable: half-life (h)

{"compound": "N=C(N)NCCCCCCC(=O)NC(CCc1ccccc1)C(=O)NCCCCNCCCN (racemic)", "unit_tag": "h", "half-life": 203}
{"compound": "N=C(N)NCCCCCCC(=O)NC(C(=O)NCCCCNCCCN)c1ccc(Br)cc1 (racemic)", "unit_tag": "h", "half-life": 440}

1. COC(NC(=O)CCCCCCNC(=N)N)C(=O)NCCCCNCCCN (racemic)
2. N=C(N)NCCCCCCC(=O)NCC(=O)NCCCCNCCCN
Query: Which of these two has the smaller recorded half-life: 1 or 2 ? Please respond with the label that marks your chosen entry.
Response: 2
